- System: SF-539 CNS
- assay-notes: NCI tumour cell line growth inhibition, 48 h; in the data active means GI50 below about 0.43 µM; inactive means the rest
Just give me one of these, please: active, inactive

- FC(F)(F)c1ccc(NCc2nc3ccccc3[nH]2)cc1: inactive
- Cc1cc(N)cc(C)c1-c1c(Br)cc(N)cc1Br: inactive
- Cc1cc2c(cc1Cl)N1C(=O)NS(=O)(=O)N=C1NS2(=O)=O: inactive
- COc1c2ccccc2c(O)c2c(=O)ccn(C)c12: inactive
- N=C1/C(=C2\Nc3ccccc3S2)CC(=O)N1c1ccc(SC(F)F)cc1: inactive

Q) Can you look up the reported call for `COc1ccc2nc3cc(Cl)ccc3c(Nc3cc(C(C)C)c(O)cc3C)c2c1` for me?
A) inactive

Q) Can you look up the reported call for Cn1cc(C2=C(c3c(S(C)=O)n(C)c4ccccc34)C(=O)NC2=O)c2ccccc21 (centres undefined) for me?
A) inactive

* * *

Listed molecules paired with reported TGI
- Tested on: EKVX NSCLC
- assay-notes: NCI tumour cell line growth inhibition, 48 h

Illustrative cases are given below, each with its answer.
• C[N+](C)(C)CCN[N+]1(C)CCCc2ccccc21 (centres undefined) = > 100 µM
• C#CC(O)/C=C/C(O)CCCC(O)CC#CC(O)C#CC(O)CCCC(O)/C=C/CCCCCC(=O)CCCCCCCCCCCCCC(O)C(O)C#CC(=O)O (centres undefined) = > 50 µM
• Cc1c2cc[n+](C)cc2c(C)c2c1oc1ccccc12 = > 42.3 µM

Q) Enter reported TGI observed with EKVX NSCLC for `Fc1ccc(-c2nn3c(COc4ccc(Cl)cc4Cl)nnc3s2)cc1Oc1ccccc1`
A) 67.3 µM

* * *

- System: SW-620 colon
- assay-notes: NCI tumour cell line growth inhibition, 48 h
Listed molecules paired with reported TGI

Illustrative cases are given below, each with its answer.
* Cc1c(N=Nc2ccc(Cl)cc2)c(C)n(C2OC(CO)C(O)C(O)C2O)c(=S)c1C#N (stereo not drawn) | > 100 µM
* Cc1cc2c(cc1Cl)SC(C(=O)c1ccc(Cl)c(Cl)c1)NS2(=O)=O (stereo not drawn) | 72.9 µM
* O=C(c1ccccc1)N1CCC(Nc2nccs2)O1 (stereo not drawn) | > 10 µM
* COc1cc2c(cc1O)C1CC(CC3CCCCN31)OC(=O)/C=C\c1ccc(O)c-2c1 (stereo not drawn) | > 100 µM
* Cc1nc2ccc(N)cc2[nH]c1=O | > 100 µM

Q) What measured TGI goes with `O=c1oc2c/c(=C\c3ccccn3)c(=O)c3cccc1c3-2` ?
A) > 100 µM

Q) What measured TGI goes with `COC(=O)c1ccc2c(C(=Nc3ccc(N(C)C(=O)CN4CCN(C)CC4)cc3)c3ccccc3)c(O)[nH]c2c1` ?
A) 4.14 µM

Q) What measured TGI goes with `c1ccc([P+](c2ccccc2)(c2ccccc2)c2ccc(-c3ccc([P+](c4ccccc4)(c4ccccc4)c4ccccc4)cc3)cc2)cc1` ?
A) > 100 µM

* * *

- Test system: CCRF-CEM leukemia
- assay-notes: NCI tumour cell line growth inhibition, 48 h
Listed compounds paired with reported TGI

Illustrative cases are given below, each with its answer.
- O=c1c2ccccc2nc2sc(/N=C/C=C/c3ccccc3)nn12: > 100 µM
- FC(F)(F)c1ccc(NCc2nc3ccccc3[nH]2)cc1: > 100 µM
- CCc1ccc([O-])c(C=NCCCN(C)CCCN=Cc2cc(C)ccc2[O-])c1.[Co+3].[N-]=[N+]=[N-]: > 150 µg/mL
- CC(=O)O[C@H]1C(=O)[C@@]2(C)C(C(OC(=O)c3ccccc3)[C@]3(O)CC(OC(=O)C(O)C(NC(=O)c4ccccc4)c4cccc(Cl)c4)C(C)=C1C3(C)C)[C@]1(OC(C)=O)CO[C@@H]1C[C@@H]2O (some centres not stated): > 10 µM
- Nc1nc(OCC2CCCCC2)c2[nH]cnc2n1: 43.6 µM

The record that follows has no TGI shown yet.
Q) Enter reported TGI observed with CCRF-CEM leukemia for N#CCC1(c2ccc(Cl)cc2)NC(=O)c2ccccc21 (configuration not stated)
A) > 100 µM

* * *

- Tested on: A498 renal
- assay-notes: NCI tumour cell line growth inhibition, 48 h; in the data active = GI50 below about 0.43 µM; inactive = the rest
Just give me one of these, please: active, inactive

Worked cases, answers included:
• Fc1ccc(-c2nn3c(COc4ccc(Cl)cc4Cl)nnc3s2)cc1Oc1ccccc1 = inactive
• COc1ccc2c(c1)C(=O)c1c-2c(N2CCN(C(=O)CCNCCNCCO)CC2)nc2ccccc12 = inactive
• COc1ccc2c(c1)N(CCO)C1=C(C(=O)OC1)C2c1ccc(OC)c(OC)c1 (stereo not drawn) = inactive
• CCN1C(=O)N(CC)C2C1NN=c1s/c(=C\c3ccc(OC)cc3)c(=O)n12 (stereo not drawn) = active
• N#Cc1c(N)c(C#N)c2c(c1-c1ccc(Cl)cc1)COc1ccc(F)cc1-2 = inactive
• OCc1ccc(N(Cc2ccc(F)cc2)CC2CCC2)cc1Cl = active
• O=C1NC(=N[C@H](CO)c2ccccc2)S/C1=C\c1ccc2ncccc2c1 = inactive

Now take the following compound into account.
Q) Can you look up the reported call for `COc1cc(Cn2c(SCC(=O)Nc3ccc(Cl)cc3)nc3ccccc3c2=O)cc(OC)c1OC` for me?
A) inactive

* * *

- System: HOP-62 NSCLC
- assay-notes: NCI tumour cell line growth inhibition, 48 h
Listed compounds paired with reported TGI

Q) What measured TGI goes with `O=C1C(Br)=CC2(C=C1Br)CCNc1c(O)c3c4c(c12)=NCCC=4C=N3` ?
A) 5.34 µM

Q) What measured TGI goes with `O=c1oc2c/c(=C\c3ccccn3)c(=O)c3cccc1c3-2` ?
A) 39.2 µM

Q) What measured TGI goes with `Cc1cc2c(cc1C)C(=O)/C(=C/c1ccccc1C(=O)O)C2` ?
A) > 100 µM

Q) What measured TGI goes with `O=C(NCCCNCCCCNCCCNC(=O)c1cc(-c2ccccc2)nc2ccccc12)c1cc(-c2ccccc2)nc2ccccc12` ?
A) 11.2 µM

Q) What measured TGI goes with `CCO[C@]12CCC[C@H]1[C@@H]1C(=O)c3ccccc3C(=O)C1=C(C)O2` ?
A) > 100 µM

Q) What measured TGI goes with `CCCCCCSc1nc(COC(=O)NC)c(COC(=O)NC)n1C` ?
A) > 100 µM

Q) What measured TGI goes with `NCCNCCNc1ccc(NCCNCCN)c2c1C(=O)c1c(O)ccc(O)c1C2=O` ?
A) > 100 µM

Q) What measured TGI goes with COC(=O)C1(O)c2ccccc2N=C2C1CCN2C (stereo not drawn) ?
A) > 100 µM

Q) What measured TGI goes with `N=C1/C(=C2\Nc3ccccc3S2)CC(=O)N1c1ccc(SC(F)F)cc1` ?
A) 14.7 µM

Q) What measured TGI goes with `CCOC(=O)C1=C(c2ccccc2)N(C(C)=O)Cc2ccccc21` ?
A) 44.3 µM

Q) What measured TGI goes with `CC1(C)CC(N2CCN(C3CC(C)(C)NC(C)(C)C3)CC2)CC(C)(C)N1` ?
A) > 100 µM

Q) What measured TGI goes with `COc1cccc(/C=C\c2ccnc3ccccc23)c1` ?
A) > 10 µM

Q) What measured TGI goes with C#CC(O)/C=C/C(O)CCCC(O)CC#CC(O)C#CC(O)CCCC(O)/C=C/CCCCCC(=O)CCCCCCCCCCCCCC(O)C(O)C#CC(=O)O (stereo not drawn) ?
A) > 50 µM

* * *

- Tested on: MDA-N
- assay-notes: NCI tumour cell line growth inhibition, 48 h
Listed molecules paired with reported TGI

Illustrative cases are given below, each with its answer.
• COc1cc(/C=C/c2ccccn2)cc(OC)c1OC = > 10 µM
• CNc1ncnc2c1cnn2CCCCO = > 100 µM
• COc1cccc(/C=C\c2ccnc3ccccc23)c1 = > 10 µM

The record that follows has no TGI shown yet.
Q) What measured TGI goes with `O=C(CSc1nc2ccc(I)cc2c(=O)n1Cc1ccccc1)NN1C(=O)c2ccccc2C1=O` ?
A) > 100 µM

* * *

Listed compounds paired with reported TGI
- Tested on: SNB-19 CNS
- assay-notes: NCI tumour cell line growth inhibition, 48 h

• CC1(C=O)CCC23COC4(CCC5C6(C)CCC(OC7OCC(OC8OC(CO)C(O)C(OC9OC(CO)C(O)C(O)C9O)C8OC8OCC(O)C(O)C8O)C(O)C7OC7OC(CO)C(O)C(O)C7O)C(C)(C)C6CCC5(C)C4(C)CC2O)C3C1 (centres undefined) = 1.09 µM
• N=C1/C(=C2\Nc3ccccc3S2)CC(=O)N1c1ccc(SC(F)F)cc1 = > 100 µM
• CNc1ncnc2c1cnn2CCCCO = > 100 µM
• CCSc1nc(-c2cccs2)nc2ccc(I)cc12 = > 100 µM
• N#CC1CCCCC1NC1(C#N)CCCCC1 (centres undefined) = > 100 µM
• CSc1ccc(/C=C2\N=C(c3ccccc3)N(/N=C3\C(=O)Nc4ccccc43)C2=O)cc1 = > 100 µM

Q) What measured TGI goes with O=C1OC2(OC2c2ccc(Cl)cc2)c2ccccc21 (centres undefined) ?
A) > 100 µM

Q) What measured TGI goes with `CCSc1nnc(-c2ccccc2)nc1Cc1ccc(OC)cc1` ?
A) > 100 µM

Q) What measured TGI goes with `COc1cc(-c2nn(-c3cccc(NC(=O)CCN4CCN(C)CC4)c3)cc2-c2ccncc2)ccc1Cl` ?
A) 8.89 µM

Q) What measured TGI goes with OCCCCCCCCCCCOc1ccc(C2OCC3(CC=CCC3)CO2)cc1 (centres undefined) ?
A) 43.5 µM

All figures here come from PubChem BioAssay (NCI).
